- condition details: human, plasma, other: orteronel oral (PO), docetaxel intravenous infusion
observable: Tmax

Memo: CC(=O)O[C@@]12CO[C@@H]1C[C@H](O)[C@@]1(C)C(=O)[C@H](O)C3=C(C)[C@@H](OC(=O)[C@H](O)[C@@H](NC(=O)OC(C)(C)C)c4ccccc4)C[C@@](O)([C@@H](OC(=O)c4ccccc4)[C@H]21)C3(C)C [docetaxel] , reported Tmax: ~1 h
